target: T1, hFc-tagged human 4-1BB extracellular domain protein (4-1BB-hFc) (human, UniProt Q07011 24-186, limits assumed); experiment: ELISA, coated human 4-1BB-hFc; Ab 0.016 ug/ml
T1 construct: also called immunogen A; 4-1BB^ECD-hFc; not shown: human IgG Fc fragment (hFc) of the pCpC vector
In this section, each of the binders is paired with its reported OD450 nm.

# BINDER, OUTPUT_UNIT, OD450 nm
data = [
    ("11H10C9 (antibody, V domains shown) VH: QVQLVESGGGVVQPGRSLRLSCAASGFTFSSYAMHWVRQAPGKGLEWVAIIWYDGSNQYYADSVKGRFTISRDNSMNTLYLQMNSLRAEDTAVYYCARVEQWLVSYFDFWGQGTLVTVSS VL: EIVMTQSPATLSVSPGERATLSCRASQSVSSNLAWYQQKPGQVPRLLIYGASTRATGIPARFSGSGSGTEFTLTISSLQSEDFAVYYCQQYNNWPTFGGGTKVEIK", "OD450 nm", 1.55),
    ("170D7F2 (antibody, V domains shown) VH: QVQLVQSGAEVKKPGASVKVSCKASGYTFTSYDINWVRQATGQGLEWMGWMNPNSGNTGYAQKFQGRVTMTRNTSISTAYMELSSLRSEDTAVYYCARETGPFDYWGQGTLVTVSS VL: DIQMTQSPSSLSASVGDRVTITCRASQRINNYLNWYQQKPGKAPKLLIYGASSLQSGVPSRFSGSGSGTDFTLTISSLQPEDFATYYCQQSYSTPFTFGPGTKVDIK", "OD450 nm", 1.64),
    ("119B6G5 (antibody, V domains shown) VH: EVQLLESGGGLVQPGGSLRLSCAASGFTFSNYAMSWVRQGPGKGLEWVSTIIGSGDSTYYTDSVKGRFTISRDNSKNTLFLQMNSLRAEDTAVYYCARDKSGWYYFDYWGQGTLVTVSS VL: DIQMTQSPSTLSASVGDRVTITCRASQSISNWLAWYQQKPGKAPKLLIYKASSLESGVPSRFSGSGSGTEFTLTISSLQPDDFATYYCQQYNDYFPITFGQGTRLEIK", "OD450 nm", 1.25),
    ("52F4G2 (antibody, V domains shown) VH: QVQLQESGPGLVKPSETLSLTCAVSGYSISSGYYWGWIRQPPGKGLEWIGSIFHSGSSYYNPSLKSRVTISVDTSKNQFSLKLRSVTAADTAVYYCARESSGWNCFDYWGQGTLVTVSS VL: DIQMTQSPSTLSASVGDRVTITCRASQTISTWLAWYQQKPGKAPKLLIYKASNLESGVPSRFSGSGSGTEFTLTISSLQPDDFATYYCQQYNSYSITFGQGTRLEIK", "OD450 nm", 2.51),
]
